# credit: paper PMC4306518

Some compounds, each annotated with its measured pKd.
target: bsNOS (Bacillus subtilis, UniProt O34453); test: Imidazole displacement assay, spectral binding constant; conditions: KS bsNOS (+H4B), presence of 50 μM H4B
Sequence (O34453 whole entry): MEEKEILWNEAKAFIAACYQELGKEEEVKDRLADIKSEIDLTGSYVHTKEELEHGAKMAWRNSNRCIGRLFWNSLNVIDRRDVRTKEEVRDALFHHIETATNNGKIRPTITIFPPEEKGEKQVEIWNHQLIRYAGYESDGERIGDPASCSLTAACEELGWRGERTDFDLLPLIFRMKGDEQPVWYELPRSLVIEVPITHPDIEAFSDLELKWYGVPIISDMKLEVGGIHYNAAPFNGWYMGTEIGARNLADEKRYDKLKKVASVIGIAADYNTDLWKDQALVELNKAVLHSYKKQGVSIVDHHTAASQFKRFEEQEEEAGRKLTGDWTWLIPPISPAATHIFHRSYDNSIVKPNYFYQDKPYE
pKd: −log10 of the molar value.

>  <compound>
Cc1cc(N)nc(CCc2cc(N)cc(CCc3cc(C)cc(N)n3)c2)c1 [compound 1]

>  <systemUnderTest>
bsNOS (Bacillus subtilis, UniProt O34453)

>  <pKd>
5.72

$$$$
>  <compound>
CNc1cc(C)cc(CCc2cc(C#N)cc(CCc3cc(C)cc(N)n3)c2)n1 [compound 4]

>  <systemUnderTest>
bsNOS (Bacillus subtilis, UniProt O34453)

>  <pKd>
4.72

$$$$
>  <compound>
NC(=NCCCC(N)C(=O)O)NO [N-ω-hydroxy-L-arginine (L-NNA), N-ω-hydroxy-L-arginine, reference compound]

>  <systemUnderTest>
bsNOS (Bacillus subtilis, UniProt O34453)

>  <pKd>
5.72

$$$$
>  <compound>
Cc1cc(N)nc(CCc2cc(CN)cc(CCc3cc(C)cc(N)n3)c2)c1 [compound 2]

>  <systemUnderTest>
bsNOS (Bacillus subtilis, UniProt O34453)

>  <pKd>
4.33

$$$$
>  <compound>
Cc1cc(N)nc(CCc2cc(CCCN)cc(CCc3cc(C)cc(N)n3)c2)c1 [compound 3]

>  <systemUnderTest>
bsNOS (Bacillus subtilis, UniProt O34453)

>  <pKd>
4.72

$$$$
>  <compound>
Cc1cc(N)nc(CCc2cc(CN)cc(CCc3ccc4cc[nH]c4n3)c2)c1 [compound 6]

>  <systemUnderTest>
bsNOS (Bacillus subtilis, UniProt O34453)

>  <pKd>
4.92

$$$$

* * *

biological target: bsNOS (Bacillus subtilis); test: Imidazole displacement assay, spectral binding constant; settings: KS bsNOS (−H4B), absence of H4B
pKd: −log10 of the molar value.
measurementName: pKd

>  <molecule>
Cc1cc(N)nc(CCc2cc(CCCN)cc(CCc3cc(C)cc(N)n3)c2)c1 [compound 3]

>  <measurementName>
pKd

>  <dataValue>
4.80

$$$$
>  <molecule>
Cc1cc(N)nc(CCc2cc(N)cc(CCc3cc(C)cc(N)n3)c2)c1 [compound 1]

>  <measurementName>
pKd

>  <dataValue>
6.04

$$$$
>  <molecule>
Cc1cc(N)nc(CCc2cc(CN)cc(CCc3ccc4cc[nH]c4n3)c2)c1 [compound 6]

>  <measurementName>
pKd

>  <dataValue>
5.00

$$$$
>  <molecule>
CNc1cc(C)cc(CCc2cc(C#N)cc(CCc3cc(C)cc(N)n3)c2)n1 [compound 4]

>  <measurementName>
pKd

>  <dataValue>
4.92

$$$$
>  <molecule>
Cc1cc(N)nc(CCc2cc(CN)cc(CCc3cc(C)cc(N)n3)c2)c1 [compound 2]

>  <measurementName>
pKd

>  <dataValue>
4.82

$$$$
